# Tested on: CMV strain GDG^r K17
# ASSAY EXPLANATION: plaque reduction assay, ganciclovir-resistant strain GDG^r K17
# Assay type: cell-based, human CMV
# ASSAY CONDITIONS: Human betaherpesvirus 5, MRC5

{"columns": ["MOLECULE", "IC50 / µM"],
 "data": [
  ["Nc1nc2c(ncn2COC(CO)CO)c(=O)[nH]1 [GCV, reference compound]", 6.1]
]}
